Tested on: NCI-H23 lung
Test: NCI-60 one-dose screen, 48 h
Conditions: 10 µM unless noted
Compounds without any hit were thinned out: in the full panel of roughly 83,000, 20% have a hit. The source made the active and inactive calls. Rule for the calls: active = growth percent below 10; inactive = the rest.
Thanks in advance; please answer with one of these: active, inactive

Examples with answers:
{"Compound": "N#CCCc1c[nH]c2ccccc12", "Measurement target": "NCI-H23 lung", "Qualitative label": "inactive"}
{"Compound": "CCN(CC)c1ccc(/C=C/c2ccc3cc(C)ccc3[n+]2CC)cc1", "Measurement target": "NCI-H23 lung", "Qualitative label": "active"}
{"Compound": "CCN(CC)CC(C)Nc1ccc(C)c2sc3ccccc3c(=O)c12 (stereo unspecified)", "Measurement target": "NCI-H23 lung", "Qualitative label": "inactive"}

Tell me the assay call for "N=C(N)c1ccc(-c2ccc(-c3ccc(-c4cccs4)s3)s2)cc1F" please.
inactive

Which result was noted for this compound in the test: O=C(C[n+]1ccn(CC(OCc2ccc(Cl)cc2Cl)c2ccc(Cl)cc2Cl)c1)c1ccc(F)cc1 (stereo unspecified)
active

Record request — test call for "CC(C)CSc1ncnc2nc[nH]c12"
inactive

# fetch the recorded call for "O=C1/C(=C\c2cccn2Cc2ccccc2)c2ccccc2N1c1c(Cl)cccc1Cl" here
inactive

Could you please tell me the result logged for "CC(C)c1ccc(C(=O)Nc2nc3ccc(O)cc3s2)cc1" in this assay?
inactive

###

Test system: SK-MEL-28 melanoma
Experiment: NCI-60 one-dose screen, 48 h (100 = growth as untreated, 0 = no growth, -100 = all killed)
Settings: 10 µM unless noted
The panel holds about 83,000 compounds, 20% with a hit somewhere; the sample as a whole holds those more often. Active and inactive are the calls of the source. The calls were made as follows: active = growth percent below 10; inactive = the rest.
Quantity name: growth

{"Compound": "COc1cc2c(c(OC)c1OC)-c1cc(I)c(O)cc1[C@@H](NC(C)=O)CC2", "Quantity name": "growth", "Experimental result": "76.7% (inactive)"}
{"Compound": "COc1ccc(-c2cc(-c3ccccc3)nc(NCCNc3ccnc4cc(Cl)ccc34)n2)cc1", "Quantity name": "growth", "Experimental result": "-92.8% (active)"}
{"Compound": "CCNC(=O)N1CCc2c(Cl)c3c(c(OC)c2[C@@H]1[C@H]1OCc2c1ccc(OC)c2OC)OCCO3", "Quantity name": "growth", "Experimental result": "54.3% (inactive)"}
{"Compound": "COc1ncnc2c(-c3ccccc3)cn(COCc3ccccc3)c12", "Quantity name": "growth", "Experimental result": "77.9% (inactive)"}
{"Compound": "Cc1ccc(S(=O)(=O)Oc2ccc([N+](=O)[O-])cc2[N+](=O)[O-])cc1", "Quantity name": "growth", "Experimental result": "113% (inactive)"}
{"Compound": "C=CCCC1(C)NC(=O)NC1=O (configuration not stated)", "Quantity name": "growth", "Experimental result": "106% (inactive)"}
{"Compound": "NC(=O)c1cccc(-c2ccc(S(=O)(=O)Nc3ccc4c(c3)N(C(=O)C3CC3)CCC4)cc2)c1", "Quantity name": "growth", "Experimental result": "51.7% (inactive)"}
{"Compound": "CC1(C)C(=NO)C(C)(C)C1=NO", "Quantity name": "growth", "Experimental result": "113% (inactive)"}
{"Compound": "Cc1nn(-c2ccccc2)c(N2CCOCC2)c1-c1nc2ccc([N+](=O)[O-])cc2[nH]1", "Quantity name": "growth", "Experimental result": "102% (inactive)"}
{"Compound": "CC1(C)CC(=O)c2c(ccc(C(=O)C[C@@H](N)CO)c2N)O1", "Quantity name": "growth", "Experimental result": "17% (inactive)"}

# evaluate next
Read off the recorded growth for "O=C1Nc2ccccc2/C1=C/C(=O)c1ccc(N2CCOCC2)cc1"
107% (inactive)

###

Tested on: OVCAR-5 ovarian
Assay: NCI-60 one-dose screen, 48 h (100 = growth as untreated, 0 = no growth, -100 = all killed)
Details: 10 µM unless noted
About 83,000 compounds went through this panel and 20% of them were active in at least one assay; those are over-represented in the sample as a whole. Active and inactive are the calls of the source. How the source made its calls: active means growth percent below 10; inactive means the rest.
Quantity name: growth

Example entries begin here.
{"Compound": "COc1ccc(C(C(=O)O)c2ccc(OC)cc2)cc1", "growth": "108% (inactive)"}
{"Compound": "COc1ccc(-c2nc3ccccn3c2/C=C/C(=O)c2cc(OC)c(OC)c(OC)c2)cc1OC", "growth": "24.5% (inactive)"}

Give reported growth for "CC1(C)C(=NO)C(C)(C)C1=NO" (OVCAR-5 ovarian)
103% (inactive)

Provide growth, recorded with OVCAR-5 ovarian, of "Nc1cc(C(=O)O)[nH]c(=S)n1"
96.1% (inactive)

Lab note: OVCAR-5 ovarian assay, enter growth for CC[C@]1(O)CC2CN(CCc3c([nH]c4ccccc34)[C@@](C(=O)OC)(c3cc4c(cc3OC)N(C=O)[C@H]3[C@@](O)(C(=O)OC)[C@H](OC(C)=O)[C@]5(CC)C=CCN6CC[C@]43[C@@H]65)C2)C1 (stereo not given in full) here
32.2% (inactive)

For OVCAR-5 ovarian, give the measured growth of the entry "C=CCc1nc2ccccc2s1"
101% (inactive)

Consider the compound "C=C(C)[C@@H]1CC[C@]2(COCCCN)CC[C@]3(C)[C@H](CC[C@@H]4[C@@](C)(CCCNCCCN)[C@H](C(=C)C)CC[C@]43C)[C@@H]12" tested on OVCAR-5 ovarian; state its growth.
-63.6% [100 µM] (active)

Send back OVCAR-5 ovarian growth of "CC1(C)NCCC[C@]2(C)[C@H]3C=CC4=C5C[C@](C)(CO)CC[C@]5(C)CC[C@@]4(C)[C@]3(C)CC[C@@H]12" only.
-98.7% [100 µM] (active)

Enter measured growth, system OVCAR-5 ovarian, for the compound shown: "COc1ncnc2c(-c3ccccc3)cn(COCc3ccccc3)c12"
110% (inactive)

State, for OVCAR-5 ovarian, measured growth of the compound listed here: "Cc1ccc(Cn2c(O)c(N=NC(=O)c3ccc(S(N)(=O)=O)cc3)c3ccccc32)cc1"
109% (inactive)

###

System: UACC-257 melanoma
Assay: NCI-60 one-dose screen, 48 h
Conditions: 10 µM unless noted
The panel holds about 83,000 compounds, 20% with a hit somewhere; the sample as a whole holds those more often. The source made the active and inactive calls. The calls were made as follows: active = growth percent below 10; inactive = the rest.
A correct response names exactly one class from active, inactive

Recorded test outcome, item "COc1c(B(O)O)cccc1-c1nc2ccc3[nH]ncc3c2c2c1CCC2"
inactive

Name the outcome recorded for "COc1cccc(-c2[nH]c(=S)ncc2C(=O)c2ccccc2)c1" in the assay.
inactive

Please state the recorded outcome for this compound: "C=C(C)[C@@H]1CC[C@]2(C)[C@H](CC=C3[C@@H]4[C@@H](C)[C@H](C)CC[C@]4(C(N)=O)CC[C@]32C)[C@@]1(C)CCC#N"
active

###

System: LOX IMVI melanoma
Assay: NCI-60 one-dose screen, 48 h
Settings: 10 µM unless noted
This is part of a sample that, as a whole, favours compounds with a hit. Of some 83,000 tested, about 20% had one in any assay. The source made the active and inactive calls. The calls were made as follows: active = growth percent below 10; inactive = the rest.
Permitted responses: active, inactive

Solved cases below.
{"Molecule": "COc1cc2c(cc1OCCCCCOc1ccc(-n3c(C)nc4ccccc4c3=O)cc1)N=C[C@@H]1CCCN1C2=O", "Qualitative label": "active"}
{"Molecule": "COc1c(C(C)=O)c(OCCCCOc2c(C(C)=O)c(OC)c3ccoc3c2OC)c(OC)c2occc12", "Qualitative label": "inactive"}
{"Molecule": "NNC(=O)c1ccc(C(=O)NN)cc1", "Qualitative label": "inactive"}
{"Molecule": "COc1cc(-c2nc(SCCC(C)C)nc(Nc3ccc(S(N)(=O)=O)cc3)c2C#N)cc(OC)c1OC", "Qualitative label": "active"}

Now for another entry.
Just curious, what result did C#CC(OC(=O)N(C)C)(c1ccccc1)c1ccc(F)cc1 (stereo not given) get here?
inactive

###

Test system: OVCAR-4 ovarian
Assay: NCI-60 one-dose screen, 48 h
Details: 10 µM
This is part of a sample that, as a whole, favours compounds with a hit. Of some 83,000 tested, about 20% had one in any assay. Calls of active or inactive are those of the source. How the source made its calls: active means growth percent below 10; inactive means the rest.
One label from this list, please: active, inactive

Example cases with answers are listed next.
{"Compound": "CCCCOC(=O)c1cccc([N+](=O)[O-])c1", "Qualitative label": "inactive"}
{"Compound": "CCCCCCCCCCCCNC(=S)N/N=C/c1ccccc1O", "Qualitative label": "inactive"}
{"Compound": "O=C(CCNCc1ccccc1)c1ccccc1", "Qualitative label": "inactive"}

Please indicate how the test categorized "FC(F)(F)c1ccc2c(c1)Sc1ccccc1N2" .
inactive

Please indicate how the test categorized COc1ccc(C2NC(=O)C(C#N)c3c2sc2c(F)cccc32)cc1 (configuration not stated) .
inactive

Any idea what this test logged for "O=C(O)c1cn(C2CC2)c2cc(N3CCN(Cc4cc(Cl)ccc4O)CC3)c(F)cc2c1=O" ?
inactive

Outcome logged for "O=C1COCCN1c1ccc(Nc2nc(Cl)nc(N3CCOCC3)n2)cc1" in this assay:
inactive

What call does the record list for "O=C(CSc1nc2ccc([N+](=O)[O-])cc2[nH]1)Nc1cccc(Cl)c1" ?
active

Please share the test call associated with "COc1ccc(/C=C(/C2=NCCN2)n2ccc3ccccc32)cc1" .
inactive

What outcome does the record of this test show for "O=[N+]([O-])c1cc([N+](=O)[O-])c(C(F)(F)F)cc1NN=C(c1ccc(O)cc1)c1ccc(O)cc1" ?
inactive

For this compound, state the assay outcome: "Cc1cc(C)c(O)c(CNCCCCCCNCc2cc(C)cc(C)c2O)c1"
inactive
